# study.target: Glucocorticoid receptor (Homo sapiens)
# assay.explanation: GR-GFP Redistribution (AID 450); also: potency is read from the fitted curve at half-maximal effect
# settings: U2OS GR-GFP nuclear translocation, laser cytometry, 2 h
The source made the active and inactive calls.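 The calls were made as follows: active = compounds whose dose series gives a full or clear partial fitted curve of increased nuclear translocation; inconclusive = weak partial curve or effect only at the top dose; inactive = no dose-dependent translocation response.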
Let's look at some compounds and their measured Potency.

COc1ccccc1CNc1ncnc2ccc(-c3ccc(C(=O)N(C)C)cc3)cc12	> 46 µM (inactive)
CN(C)c1ncc2nc(CCc3ccccc3)c(=O)n(CCc3ccccc3)c2n1	> 9.22 µM (inactive)
COc1ncc2nc(-c3cccs3)c(=O)n(CCC#N)c2n1	> 9.22 µM (inactive)
COc1cccc(Nc2ncc3ncc(=O)n(CCC#N)c3n2)c1	> 9.22 µM (inactive)
COCCn1c(=O)c(-c2cc(F)cc(F)c2)nc2cnc(N3CCN(C)CC3)nc21	> 9.22 µM (inactive)

Q: Looking for the measured Potency of Cc1ncc(COP(=O)(O)O)c(C)c1O , can you help?
Result: > 46 µM (inactive)

Q: Looking for the measured Potency of COc1cccc(Nc2ncc3nc(-c4cc(F)cc(F)c4)c(=O)n(CCC#N)c3n2)c1 , can you help?
Result: > 9.22 µM (inactive)

Q: Looking for the measured Potency of COc1ccc(-c2oc3ccc(C)cc3c(=O)c2O)cc1OC , can you help?
Result: > 46 µM (inactive)

----------
# study.target: Rap guanine nucleotide exchange factor 3 (Homo sapiens)
# assay.explanation: Confirmatory qHTS for antagonist of cAMP-regulated guanine nucleotide exchange factor 3 (EPAC1) (AID 1645880); also: nearly all actives have a fitted effect of over 55% in size
# settings: EPAC1 Rap1B-BODIPY-GDP exchange, fluorescence
# Excerpt: Assay Provider (PI): Xiaodong Cheng Ph.D. The University of Texas Medical Branch, […], TX MLPCN Grant: NS066510 In multi-cellular eukaryotic organisms, the effects of cAMP are transduced by two ubiquitously-expressed intracellular cAMP receptors, the classic protein kinase A/cAMP-dependent protein kinase (PKA/cAPK) and the more recently discovered exchange protein directly activated by cAMP/cAMP-regulated guanine nucleotide exchange factor (EPAC/cAMP-GEF). […]
Records with an inconclusive call do not appear. Active and inactive are the calls of the source. The call rests on the fitted dose curve; in most records, active means well fitted inhibition curve with a large enough effect; inconclusive means small, poorly fitted or top-dose-only effect; inactive means no such curve, though single readings can be large or run the other way.
Respond only with the outcome that fits, drawn from true for active, false for inactive

COc1cc(NC(=O)c2cnc(N)s2)cc(C(=O)Nc2cccc(C(F)(F)F)c2)c1	true
Cc1oc2cc(Br)c(O)c(Br)c2c1C(=O)c1ccccc1	false
CCCCN(CCCC)c1ccc(/C=C/c2ccnc3ccccc23)cc1	false
CN1CCN(c2ncc3nc(-c4cn(C)c5ccccc45)c(=O)n(CCC#N)c3n2)CC1	false

Q: Record lookup: outcome of this test for CC(C)(C)CNC(=O)c1cccc2c1C(=O)c1ccc(-c3cc4ccccc4o3)cc1S2(=O)=O ?
Result: false

Q: Record lookup: outcome of this test for COc1cc(NC(=O)CCNC(=O)Cn2ccc3ccccc3c2=O)cc(OC)c1OC ?
Result: false

Q: Record lookup: outcome of this test for O=C(c1sc2cc(F)ccc2c1Cl)N1CCN(c2ccccc2)CC1 ?
Result: false

Q: Record lookup: outcome of this test for CCOC(=O)N1CCc2c(sc3c2c(=O)n(-c2ccc(F)cc2)c(=O)n3CC(=O)c2ccc(Cl)cc2)C1 ?
Result: false

Q: Record lookup: outcome of this test for CCc1ccc(NC(=O)CSc2nc(-c3ccccc3)c(C#N)c(=O)[nH]2)cc1 ?
Result: true

Q: Record lookup: outcome of this test for CCOC(=O)C1Oc2ccccc2C(c2ccc(C)cc2)=C1C(=O)OC (stereo not given) ?
Result: false
